Target: MecA (Staphylococcus aureus)
Sequence (Q7DHH4 whole entry): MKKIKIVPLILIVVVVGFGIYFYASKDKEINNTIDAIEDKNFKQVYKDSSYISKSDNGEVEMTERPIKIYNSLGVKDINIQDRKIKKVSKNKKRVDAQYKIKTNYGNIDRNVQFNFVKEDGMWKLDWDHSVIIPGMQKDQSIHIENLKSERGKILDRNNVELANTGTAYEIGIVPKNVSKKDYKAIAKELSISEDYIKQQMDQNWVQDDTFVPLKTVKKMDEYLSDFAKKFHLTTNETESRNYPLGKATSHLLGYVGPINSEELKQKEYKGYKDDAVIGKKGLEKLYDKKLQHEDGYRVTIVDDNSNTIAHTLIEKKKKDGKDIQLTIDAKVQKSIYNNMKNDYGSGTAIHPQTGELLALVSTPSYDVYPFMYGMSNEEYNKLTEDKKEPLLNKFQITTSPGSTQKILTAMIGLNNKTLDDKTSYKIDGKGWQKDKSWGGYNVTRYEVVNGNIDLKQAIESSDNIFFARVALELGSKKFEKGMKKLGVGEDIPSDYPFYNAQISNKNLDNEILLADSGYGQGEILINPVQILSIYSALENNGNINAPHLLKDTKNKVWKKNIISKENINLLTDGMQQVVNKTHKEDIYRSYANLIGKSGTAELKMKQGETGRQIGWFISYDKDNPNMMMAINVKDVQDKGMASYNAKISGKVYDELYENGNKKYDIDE
Assay: Binding affinity against PBP2a receptor by competition analysis with [3H]benzylpenicillin using cell membrane fractions from the MRSA COL strain.
pIC50: −log10 of the molar value.
MEASURE_NAME: pIC50

- SMI: "C[C@@H](O)[C@H]1C(=O)N2C(C(=O)O)=C(c3ccc4c(c3)-c3ccc(C[N+]56CC[N+](CC(=O)Nc7ccc(C#N)cc7)(CC5)CC6)cc3C4=O)[C@H](C)[C@H]12.[Cl-].[Cl-]"
  OBSERVED: 5.85
- SMI: "C[C@@H](O)[C@H]1C(=O)N2C(C(=O)O)=C(c3ccc4c(c3)-c3ccc(C[N+]56CC[N+](CC(=O)Nc7ccccc7C#N)(CC5)CC6)cc3C4=O)[C@H](C)[C@H]12.[Cl-].[Cl-]"
  OBSERVED: 5.96
- SMI: "C[C@@H](O)[C@H]1C(=O)N2C(C(=O)O)=C(c3ccc4c(c3)-c3ccc(C[N+]56CC[N+](CCO)(CC5)CC6)cc3C4=O)[C@H](C)[C@H]12.[Cl-].[Cl-]"
  OBSERVED: 5.99

###

System: Staphylococcus sp.
Test: Antibacterial activity against methicillin-resistant coagulase negative Staphylococci (MRCNS)
Type: functional
Quick reference: MIC90 of the listed items.
MEASURE_NAME: MIC90 (µg/mL)

- SMI: "COc1cccc(NC(=O)C[N+]23CC[N+](Cc4ccc5c(c4)C(=O)c4ccc(C6=C(C(=O)O)N7C(=O)[C@H]([C@@H](C)O)[C@H]7[C@H]6C)cc4-5)(CC2)CC3)c1.[Cl-].[Cl-]"
  MEASURE_NAME: "MIC90"
  OBSERVED: 4
- SMI: "C[C@@H](O)[C@H]1C(=O)N2C(C(=O)O)=C(c3ccc4c(c3)-c3ccc(C[N+]56CC[N+](CC(=O)Nc7ccccc7)(CC5)CC6)cc3C4=O)[C@H](C)[C@H]12.[Cl-].[Cl-]"
  MEASURE_NAME: "MIC90"
  OBSERVED: 4
- SMI: "C[C@@H](O)[C@H]1C(=O)N2C(C(=O)[O-])=C(c3ccc4c(c3)-c3ccc(C[N+]56CC[N+](CC(N)=O)(CC5)CC6)cc3C4=O)[C@H](C)[C@H]12.[Cl-]"
  MEASURE_NAME: "MIC90"
  OBSERVED: 8
- SMI: "CCC[N+]12CC[N+](Cc3ccc4c(c3)C(=O)c3ccc(C5=C(C(=O)O)N6C(=O)[C@H]([C@@H](C)O)[C@H]6[C@H]5C)cc3-4)(CC1)CC2.[Cl-].[Cl-]"
  MEASURE_NAME: "MIC90"
  OBSERVED: 8
